This section presents compounds with their documented logP values.
# experiment notes: Measurement of logP values by HPLC on reversed phase columns (EEC directive 79/831 Annex V.A8)
# Format: physicochemical
# particulars: pH 2.7
measured property: logP

1) COC(=O)c1cc(-c2ncnc(Nc3ccnc(Cl)c3)n2)ccn1 :: 2.02
2) CC(C)=CCN(C)C(=O)c1cc(-c2ncnc(Nc3cccc(Cl)c3)n2)ccn1 :: 3.67
3) CCN(CC)C(=O)c1cc(-c2ncnc(Nc3ccc(Cl)c(C(F)F)c3)n2)ccn1 :: 3.23
4) C=CCN(C)C(=O)c1cc(-c2ncnc(Nc3cccc(Cl)c3)n2)ccn1 :: 2.96
5) CCN(C)C(=O)c1cc(-c2ncnc(Nc3cccc(S(F)(F)(F)(F)F)c3)n2)ccn1 :: 3.06
6) NC(=S)c1cc(-c2ncnc(Nc3cccc(C(F)F)c3)n2)ccn1 :: 3.05
7) CCN(CC)C(=O)c1cc(-c2ncnc(Nc3ccc(F)c(C(F)F)c3)n2)ccn1 :: 2.86
8) CN(CC1CC1)C(=O)c1cc(-c2ncnc(Nc3ccc(F)c(C(F)F)c3)n2)ccn1 :: 2.98
9) CCN(CC)C(=S)c1cc(-c2ncnc(Nc3cccc(OC)c3)n2)ccn1 :: 3.15
